- assayTarget: Lysine-specific demethylase 4A (Homo sapiens) (UniProt O75164)
- Sequence (O75164 whole entry, looked up, the tested form may be a part): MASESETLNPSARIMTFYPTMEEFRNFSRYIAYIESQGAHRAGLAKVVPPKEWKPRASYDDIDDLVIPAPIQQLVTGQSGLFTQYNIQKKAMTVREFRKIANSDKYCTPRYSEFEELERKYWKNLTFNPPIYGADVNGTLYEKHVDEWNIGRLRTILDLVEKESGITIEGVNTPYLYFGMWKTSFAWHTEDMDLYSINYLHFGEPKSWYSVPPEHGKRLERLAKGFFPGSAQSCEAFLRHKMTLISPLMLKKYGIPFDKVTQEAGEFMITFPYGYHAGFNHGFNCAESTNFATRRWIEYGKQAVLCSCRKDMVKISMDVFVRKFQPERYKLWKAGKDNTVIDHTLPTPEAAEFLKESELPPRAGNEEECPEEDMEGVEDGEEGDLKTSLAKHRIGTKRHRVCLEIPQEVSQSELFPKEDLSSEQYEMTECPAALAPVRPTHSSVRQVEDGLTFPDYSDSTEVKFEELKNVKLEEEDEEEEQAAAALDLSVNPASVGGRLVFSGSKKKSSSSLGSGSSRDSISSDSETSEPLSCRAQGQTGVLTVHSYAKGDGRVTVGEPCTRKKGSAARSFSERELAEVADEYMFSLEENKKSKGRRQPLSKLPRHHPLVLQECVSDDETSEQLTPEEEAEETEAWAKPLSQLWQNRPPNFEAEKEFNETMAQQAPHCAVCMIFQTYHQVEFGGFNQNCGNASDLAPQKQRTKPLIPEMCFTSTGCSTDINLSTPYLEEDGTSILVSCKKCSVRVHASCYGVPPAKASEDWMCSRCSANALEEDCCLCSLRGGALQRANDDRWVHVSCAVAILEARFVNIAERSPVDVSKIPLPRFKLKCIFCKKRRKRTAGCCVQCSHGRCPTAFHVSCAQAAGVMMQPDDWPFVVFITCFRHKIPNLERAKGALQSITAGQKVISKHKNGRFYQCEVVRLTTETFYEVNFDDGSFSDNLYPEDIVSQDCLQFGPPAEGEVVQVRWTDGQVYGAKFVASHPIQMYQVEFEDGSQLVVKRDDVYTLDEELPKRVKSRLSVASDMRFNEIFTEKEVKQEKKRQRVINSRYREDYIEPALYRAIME
- methodDescription: qHTS Assay for Inhibitors of JMJD2A-Tudor Domain; note: nearly all actives have a fitted effect of over 50% in size
- measurementContext: AlphaScreen JMJD2A-Tudor / H3K4me3 peptide binding; series mostly up to 114 µM
Among all 390,000 compounds or so, about 17,000 (4.4%) were called active. About 8% were inconclusive and are not listed. Calls come from the whole dose curve; as a rule, active = well fitted inhibition curve with a large enough effect; inconclusive = small, poorly fitted or top-dose-only effect; inactive = no such curve, though single readings can be large or run the other way. Only a selection was taken, and actives are over-represented in it overall.
Return exactly one item of active, inactive

> print(dat)
                                   molecule  assignedlabel
1  CC1([N+](=O)[O-])COP(=O)(Nc2ccc(F)cc2)OC1 (stereo not given)       inactive
2          CCN1CCN(Cc2cc(OC)c3c(c2)OCO3)CC1       inactive
3  COC(=O)N(c1ccc(OC)cc1)P1(=S)OCCC(C)O1 (stereo not given)         active
4  Cc1ccc(Cn2nnnc2CN2CCC(n3nnc4ccccc43)CC2)cc1         active

Proceed to the following item.
Q. So what was the verdict on `Cn1c(O)c(C=NCCN2CCNCC2)c(=O)n(C)c1=O` in this test?
A. inactive
